System: RAW-Dual
protocol: NF-kB SEAP reporter activity, fold change vs agonist alone; cytotoxicity flag (confluency mask): not cytotoxic; higher = enhanced NF-kB activity
testSettings: agonist: Pam2CSK4 (TLR2/6) 0.1 ug/mL
Whole data set: some 2,900 compounds, median “NF-kB SEAP reporter activity, fold change vs agonist alone” near 0.99, cut for the highest 2% near 2.6. Only a selection was taken, and the highest values are over-represented in it overall.
Returns one of 1 or 0; 1 when NF-kB SEAP reporter activity is >= 1.

O=C(CCNC(=O)c1ccc(OC(F)(F)F)cc1)NC1CCCc2ccccc21 (stereo not given) (library stock concentration (final ~1000-fold dilution): 10 mM)	0
CC12CC(O)C3CC1(O[C@@H]1O[C@H](CO)[C@@H](O)[C@H](O)[C@H]1O)C3(COC(=O)c1ccccc1)C(=O)O2 (stereo not given in full) (library stock concentration (final ~1000-fold dilution): 10 mM)	1
Cc1cc([N+](=O)[O-])ccc1NS(=O)(=O)c1cc(Cl)ccc1Cl (library stock concentration (final ~1000-fold dilution): 10 mM)	0

Turning now to a further compound:
Inquiry: Has COc1nc2ccc(Br)cc2cc1C(c1ccccc1)C(O)(CCN(C)C)c1cccc2ccccc12 (stereo not given) (library stock concentration (final ~1000-fold dilution): 10 mM) a recorded NF-kB SEAP reporter activity greater than or equal to 1?
Reply text: 0

* * *

Test system: RAW-Dual
protocol: NF-kB SEAP reporter activity, fold change vs agonist alone; cytotoxicity flag (confluency mask): not cytotoxic; higher = enhanced NF-kB activity
testSettings: agonist: LPS (TLR4) 0.1 ug/mL
In all, about 2,900 compounds were measured (“NF-kB SEAP reporter activity, fold change vs agonist alone”: median about 0.99, highest 2% from about 2.6 on). The sample as a whole holds a higher share of the highest values than the screen did.
readoutType: NF-kB SEAP reporter activity
// response body must contain only the number

FC(F)F.N=C(N)NCCCC1NC(=O)C(CCCCN)NC(=O)C(Cc2ccc(O)cc2)NC(=O)C(CC(=O)O)NC(=O)CNC1=O.O=C(O)C(F)(F)F.O=CO (stereo not drawn) (library stock concentration (final ~1000-fold dilution): 10 mM)	1.23

Per the records, this molecule ( O=c1c(-c2ccc(O)cc2)coc2cc(OC3OC(CO)C(O)C(O)C3O)ccc12 (stereo not drawn) (library stock concentration (final ~1000-fold dilution): 10 mM) ) has NF-kB SEAP reporter activity equal to 1.62

Documented NF-kB SEAP reporter activity of CC(=O)OC1(C(C)=O)CCC2C3C=C(Cl)C4=CC(=O)C5CC5C4(C)C3CCC21C (stereo not drawn) (library stock concentration (final ~1000-fold dilution): 10 mM) : 1.2

* * *

Tested on: RAW-Dual
protocol: NF-kB SEAP reporter activity, fold change vs agonist alone; cytotoxicity flag (confluency mask): cytotoxic (confluency <70% of control); higher = enhanced NF-kB activity
testSettings: agonist: Pam3CSK4 (TLR2/1) 0.1 ug/mL
In all, about 2,900 compounds were measured (“NF-kB SEAP reporter activity, fold change vs agonist alone”: median about 0.99, highest 2% from about 2.6 on). This is one part of a sample in which the highest values are shown more often than they occur.
readoutType: NF-kB SEAP reporter activity
Enter a number only.

CC(C)(C)c1nc(-c2cccc(NS(=O)(=O)c3c(F)cccc3F)c2F)c(-c2ccnc(N)n2)s1 (library stock concentration (final ~1000-fold dilution): 10 mM)	1.57
CN(c1ncccc1CNc1nc(Nc2ccc3c(c2)CC(=O)N3)ncc1C(F)(F)F)S(C)(=O)=O.Cl (library stock concentration (final ~1000-fold dilution): 10 mM)	0.135

Please fill in: NF-kB SEAP reporter activity reported for CS(=O)(=O)O.Cn1cc(C2=C(c3cn(CCCSC(=N)N)c4ccccc34)C(=O)NC2=O)c2ccccc21 (library stock concentration (final ~1000-fold dilution): 10 mM) = 0.138

response.value for Cc1cc(C)cc(C(=O)NOCCCCCC(=O)NO)c1 (library stock concentration (final ~1000-fold dilution): 10 mM) (field: NF-kB SEAP reporter activity) = 1.43

For record Oc1c(Cl)cc(Cl)cc1Sc1cc(Cl)cc(Cl)c1O (library stock concentration (final ~1000-fold dilution): 10 mM) the listed NF-kB SEAP reporter activity is 0.801

* * *

System: RAW-Dual
protocol: NF-kB SEAP reporter activity, fold change vs agonist alone; cytotoxicity flag (confluency mask): not cytotoxic; higher = enhanced NF-kB activity
testSettings: agonist: Pam2CSK4 (TLR2/6) 0.1 ug/mL
Over roughly 2,900 compounds, “NF-kB SEAP reporter activity, fold change vs agonist alone” has its median near 0.99; the highest 2% begin near 2.6. Many of the other results were omitted from the sample, so the highest values are more common in it than they were.
readoutType: NF-kB SEAP reporter activity
Response field accepts a number only; no unit should be typed.

NC(CSC(c1ccccc1)(c1ccccc1)c1ccccc1)C(=O)O (stereo unspecified) (library stock concentration (final ~1000-fold dilution): 10 mM)	0.699
CC(C)C1C(=O)NC(CCCNC(=N)N)C(=O)NCC(=O)NC(CC(=O)O)C(=O)NC(Cc2ccccc2)C(=O)N1C.O=C(O)C(F)(F)F (stereo unspecified) (library stock concentration (final ~1000-fold dilution): 10 mM)	0.985
C=CC(=O)N1CC(Nc2ncnc3[nH]ccc23)CCC1C (stereo unspecified) (library stock concentration (final ~1000-fold dilution): 10 mM)	0.56
O=C1C(CCC(O)c2ccc(F)cc2)C(c2ccc(O)cc2)N1c1ccc(F)cc1 (stereo unspecified) (library stock concentration (final ~1000-fold dilution): 10 mM)	0.889
CCC(Nc1ncnc2[nH]cnc12)c1nc2cccc(F)c2c(=O)n1-c1ccccc1 (stereo unspecified) (library stock concentration (final ~1000-fold dilution): 10 mM)	0.969
COc1cc(OC)c(/C=C2/C(=O)Nc3ccccc32)c(OC)c1 (library stock concentration (final ~1000-fold dilution): 10 mM)	1.33

Briefly, NF-kB SEAP reporter activity measured for CC(C)n1nc(-c2ccc(NC(=O)Nc3cc(C(F)(F)F)ccc3F)cc2)c2c(N)ncnc21 (library stock concentration (final ~1000-fold dilution): 10 mM) : 0.0706

Per the records, this molecule ( Cc1cc(-c2ccnc3cc(O)ccc23)ccc1O (library stock concentration (final ~1000-fold dilution): .1 mM) ) has NF-kB SEAP reporter activity equal to 1.32

Query COc1ccc(CCNCC(O)COc2cccc(C)c2)cc1OC.Cl (stereo unspecified) (library stock concentration (final ~1000-fold dilution): 10 mM) yields NF-kB SEAP reporter activity of 0.999

* * *

System: RAW-Dual
protocol: NF-kB SEAP reporter activity, fold change vs agonist alone; cytotoxicity flag (confluency mask): not cytotoxic; higher = enhanced NF-kB activity
testSettings: agonist: ODN 1826 (TLR9) 0.5 ug/mL
The full ranking holds about 2,900 compounds; the median of “NF-kB SEAP reporter activity, fold change vs agonist alone” is about 0.99, and the highest 2% start at about 2.6. The full list was thinned out, with the highest values kept by preference.
Would you mind labelling by NF-kB SEAP reporter activity? At or over 1 is 1, under is 0.

O=c1[nH]c(=S)[nH]c2nc(-c3ccccc3)c(-c3ccccc3)nc12 (library stock concentration (final ~1000-fold dilution): 10 mM)	0

Inquiry: Is it the case that Nc1ccn(C2OC(CO)C(O)C2O)c(=O)n1 (stereo unspecified) (library stock concentration (final ~1000-fold dilution): 10 mM water) has NF-kB SEAP reporter activity reaching or exceeding 1?
Reply text: 1

Inquiry: Reported NF-kB SEAP reporter activity at or above 1? O=C(Cc1ccccc1)Nc1nnc(NC2CCN(c3nnc(NC(=O)Cc4ccccc4)s3)CC2)s1 (library stock concentration (final ~1000-fold dilution): 10 mM)
Reply text: 0

Inquiry: Determine whether this molecule has NF-kB SEAP reporter activity no lower than 1: Nc1ncn(C2OC(CO)C(O)C2O)c(=O)n1 (stereo unspecified) (library stock concentration (final ~1000-fold dilution): 10 mM)
Reply text: 1

Inquiry: Identify whether the reported NF-kB SEAP reporter activity of the following molecule is 1 or greater: C#CCNC1CCc2ccccc21 (stereo unspecified) (library stock concentration (final ~1000-fold dilution): 10 mM)
Reply text: 0

* * *

System: RAW-Dual
protocol: NF-kB SEAP reporter activity, fold change vs agonist alone; higher = enhanced NF-kB activity
testSettings: library stock concentration (final ~1000-fold dilution): 10 mM; cytotoxicity flag (confluency mask): not cytotoxic; agonist: Imiquimod (TLR7) […]
In all, about 2,900 compounds were measured (“NF-kB SEAP reporter activity, fold change vs agonist alone”: median about 0.99, highest 2% from about 2.6 on). The sample holds the highest values, similar compounds and a random draw of the others, so the mix is not that of the screen.
readoutType: NF-kB SEAP reporter activity
Reply with the value as a number alone.

Look over these answered cases.
N#Cc1cnc(Nc2cc(NCC3CNCCO3)c(C(F)(F)F)cn2)cn1 (stereo unspecified)	1.66
Oc1cccc(-c2nc(N3CCOCC3)c3oc4ncccc4c3n2)c1	2.46
CNCCN1CCC(OCc2ccccc2)CC1.Cl.Cl	1.55

Kindly note the recorded NF-kB SEAP reporter activity for O=C(Nc1ccccc1)c1cc([N+](=O)[O-])ccc1Cl , which is 1.37

Notebook: CCCCNNC(=O)c1ccc(Br)cc1 , NF-kB SEAP reporter activity read as 1.95

Form: compound = CC(C)(C)NCC(O)COc1cccc2c1CCC(=O)N2.Cl (stereo unspecified) ; NF-kB SEAP reporter activity = 1.02

Lab note: O=C(NO)c1ccc(CC(=O)N(CCO)c2ccccc2)cc1 gave NF-kB SEAP reporter activity of 1.15

Each recorded value in this set is attributed to the supplement of paper PMC10037445.
